- ASSAYED SYSTEM: Phosphatidylinositol 4,5-bisphosphate 3-kinase catalytic subunit gamma isoform (Homo sapiens, UniProt P48736)
- Sequence (P48736 whole entry, canonical isoform): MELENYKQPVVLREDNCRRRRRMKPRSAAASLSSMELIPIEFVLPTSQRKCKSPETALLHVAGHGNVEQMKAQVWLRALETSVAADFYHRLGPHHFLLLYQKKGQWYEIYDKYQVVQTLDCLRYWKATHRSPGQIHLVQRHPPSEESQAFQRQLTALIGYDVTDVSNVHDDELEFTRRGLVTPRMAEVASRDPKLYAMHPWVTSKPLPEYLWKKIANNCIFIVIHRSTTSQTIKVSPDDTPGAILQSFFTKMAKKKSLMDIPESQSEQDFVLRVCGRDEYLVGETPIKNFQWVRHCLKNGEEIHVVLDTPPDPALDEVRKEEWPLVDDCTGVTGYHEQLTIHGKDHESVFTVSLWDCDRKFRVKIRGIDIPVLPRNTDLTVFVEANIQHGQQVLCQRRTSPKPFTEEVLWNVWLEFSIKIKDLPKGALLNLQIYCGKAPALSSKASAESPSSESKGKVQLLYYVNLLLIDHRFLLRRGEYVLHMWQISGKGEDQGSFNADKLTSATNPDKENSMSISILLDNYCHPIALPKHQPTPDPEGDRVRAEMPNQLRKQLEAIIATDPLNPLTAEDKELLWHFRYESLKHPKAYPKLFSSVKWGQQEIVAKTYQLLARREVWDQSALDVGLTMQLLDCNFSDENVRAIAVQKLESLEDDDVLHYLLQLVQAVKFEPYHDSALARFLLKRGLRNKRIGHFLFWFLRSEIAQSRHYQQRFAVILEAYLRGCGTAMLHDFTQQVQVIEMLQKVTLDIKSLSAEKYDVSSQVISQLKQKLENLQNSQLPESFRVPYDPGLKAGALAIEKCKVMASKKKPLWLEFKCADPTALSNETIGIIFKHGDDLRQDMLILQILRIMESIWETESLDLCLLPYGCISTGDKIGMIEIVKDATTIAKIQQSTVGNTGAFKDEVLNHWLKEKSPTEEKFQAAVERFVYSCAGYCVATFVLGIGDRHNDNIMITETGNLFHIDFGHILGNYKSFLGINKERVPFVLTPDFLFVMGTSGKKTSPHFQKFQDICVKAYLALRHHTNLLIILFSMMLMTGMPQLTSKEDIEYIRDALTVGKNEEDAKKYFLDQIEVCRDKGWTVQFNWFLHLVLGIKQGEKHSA
- METHOD NOTES: Inhibition Assay of PI3K
pIC50: −log10 of the molar value.
Catalogue of compounds with associated pIC50

1. CS(=O)(=O)Nc1nc2cc(-c3ccc4ncc(C(=O)N5CCOCC5)n4c3)ccc2o1 | < 5.00
2. COC(=O)N1CCC(n2ncc3c(N4CCOCC4)nc(-c4ccc5oc(N)nc5c4)nc32)CC1 | < 5.00
3. Nc1nc2cc(-c3cc(F)c4ncc(C(=O)N5CCOCC5)n4c3)ccc2o1 | < 5.00
4. CC(=O)n1nc(N)c2ccc(-c3ccc4oc(N)nc4c3)cc21 | < 5.00
5. Cc1ncccc1-c1cnc2ccc(-c3ccc4oc(N)nc4c3)cc2n1 | < 5.00

**Query** Could you please provide reported pIC50 for `Cn1c(N2CCOCC2)nc2cc(-c3ccc4oc(N)nc4c3)ccc2c1=O` ? Thanks!
**Result** < 5.00

**Query** Could you please provide reported pIC50 for `O=C(c1cnc2ccc(-c3ccc4oc(Nc5ccccc5)nc4c3)cn12)N1CCOCC1` ? Thanks!
**Result** < 5.00

**Query** Could you please provide reported pIC50 for `Nc1nc2cc(-c3ccc4ncn(C5CCCC5)c(=O)c4c3)ccc2o1` ? Thanks!
**Result** < 5.00

**Query** Could you please provide reported pIC50 for `Nc1nc2nc(-c3ccc4ncc(C(=O)N5CCOCC5)n4c3)ccc2o1` ? Thanks!
**Result** < 5.00

**Query** Could you please provide reported pIC50 for `CC(=O)Nc1cn2cc(-c3ccc4nccc(-c5ccncc5)c4c3)ccc2n1` ? Thanks!
**Result** < 5.00

**Query** Could you please provide reported pIC50 for `CS(=O)(=O)Nc1cc(-c2ccc3ncc(C(=O)N4CCOCC4)n3c2)ccc1Cl` ? Thanks!
**Result** < 5.00

**Query** Could you please provide reported pIC50 for `CNC(=O)CN1CCN(c2cnc3ccc(-c4ccc5oc(N)nc5c4)cc3n2)CC1` ? Thanks!
**Result** < 5.00

**Query** Could you please provide reported pIC50 for `Cc1c(-c2ccc3oc(N)nc3c2)ccc2ncc(N3CC(N4CCOCC4)C3)nc12` ? Thanks!
**Result** < 5.00

**Query** Could you please provide reported pIC50 for `CCN1CCC(n2cnc3ccc(-c4ccc5oc(N)nc5c4)cc3c2=O)CC1` ? Thanks!
**Result** < 5.00

**Query** Could you please provide reported pIC50 for `CN1CCN(CCCn2cnc3ccc(-c4ccc5oc(N)nc5c4)cc3c2=O)CC1` ? Thanks!
**Result** < 5.00
